Reference for the values: PubChem BioAssay (Tox21)

run.description: qHTS assay to identify small molecule antagonists of the peroxisome proliferator-activated receptor delta (PPARd) signaling pathway - cell viability counter screen (AID 743213); note: nearly all actives have a fitted effect of over 50% in size
study.conditions: PPARd-bla HEK293H viability, CellTiter-Glo luminescence, 17 h; series mostly up to 62 µM
Records with an inconclusive call do not appear. Activity calls are given as the source filed them. Calls come from the whole dose curve; as a rule, active = well fitted cell-killing curve with a large enough effect in the repeat runs; inconclusive = weak or mixed curves; inactive = no such curve, though single readings can be large or run the other way.
Outcomes: 1 for active, 0 for inactive

>>> assigned_class("O=C(O)C(Cl)Cl")
0
>>> assigned_class("CCC[N+]1(C)CCCCC1")
0
>>> assigned_class("CC(Cl)(Cl)C(=O)O")
0
>>> assigned_class("COc1ccc(N)cc1")
0
>>> assigned_class("CCn1cc[n+](C)c1C")
0
>>> assigned_class("O=C(O)CC(O)(CC(=O)O)C(=O)O")
0
>>> assigned_class("Cc1cc(-c2ccc(N)c(C)c2)ccc1N")
0
>>> assigned_class("COP(=O)(OC)C(O)C(Cl)(Cl)Cl (configuration not stated)")
0
>>> assigned_class("O=c1nc(O)n(Cl)c(=O)n1Cl")
0
>>> assigned_class("C1CCC(NC2CCCCC2)CC1")
0
>>> assigned_class("O=C(O)c1nc(Cl)ccc1Cl")
0
>>> assigned_class("CC[N+](CC)(CC)CC")
0
>>> assigned_class("CC[n+]1ccccc1")
0
>>> assigned_class("CCCCCCCCCCn1cc[n+](C)c1")
1
>>> assigned_class("CCCCCCn1cc[n+](C)c1")
0
>>> assigned_class("CN(C)[C@@H]1C(=O)C(C(N)=O)=C(O)[C@@]2(O)C(=O)C3=C(O)c4c(O)cccc4[C@@](C)(O)[C@H]3[C@H](O)[C@@H]12")
0
>>> assigned_class("CCCC[n+]1cccc(C)c1")
0
>>> assigned_class("CCCn1cc[n+](C)c1")
0
>>> assigned_class("Cc1cc(Cl)ccc1OCC(=O)O")
0
>>> assigned_class("CCCCn1cc[n+](C)c1C")
0
>>> assigned_class("CCCC[n+]1ccccc1C")
0
>>> assigned_class("O=[N+]([O-])O")
0
>>> assigned_class("CNC")
0
>>> assigned_class("CCCC[n+]1ccccc1")
0
>>> assigned_class("COP(=O)(OC)OC=C(Cl)Cl")
0
>>> assigned_class("CCOP(=S)(OCC)Oc1ccc2c(C)c(Cl)c(=O)oc2c1")
0
>>> assigned_class("Nc1ccc(-c2ccc(N)cc2)cc1")
0
>>> assigned_class("C[C@]12CCC(=O)C=C1CC[C@@H]1[C@@H]2CC[C@]2(C)C(=O)CC[C@@H]12")
0
>>> assigned_class("CCCCCCCCn1cc[n+](C)c1")
0
>>> assigned_class("Nc1ccc(-c2ccc(N)c(Cl)c2)cc1Cl")
0
>>> assigned_class("CCNc1nc(Cl)nc(NCC)n1")
0
>>> assigned_class("Cc1cc(Cl)ccc1N")
0
